# System: U2OS
# Test Method Notes: Multiplex assay against U2OS
# Type: toxicity, cell-based
# Details: human, 12 h, 10 µM, compound concentration 10 uM, replicate 1
Recorded measurements of Population Hoechst High Intensity Objects (%), one per entry
Value expressed in %; do not type the unit.

Molecule Smiles: CN(C)CCOc1ccc(-c2nc(-c3ccncc3)c(-c3ccc4c(c3)CC/C4=N\O)[nH]2)cc1
Measurement: 3

**Query** I would be grateful if you could share the reported Population Hoechst High Intensity Objects (%) for COc1cc2c(NC3CCN(C(C)C)CC3)nc(N3CCC(F)(F)CC3)nc2cc1OCCCN1CCCC1 .
**Result** 8

**Query** Next entry: N#Cc1cnc(Nc2cc(NC[C@H]3CNCCO3)c(C(F)(F)F)cn2)cn1
**Result** 4

**Query** Also check CCCn1c(=O)c2[nH]c(C34CC5CC(CC3C5)C4)nc2n(CCC)c1=O
**Result** 13

**Query** Repeat with CNc1oc(-c2cccc3ccccc23)nc1C#N
**Result** 44

**Query** Next: CCOc1cc(N2CCC(O)CC2)ccc1Nc1ncc2c(n1)N(C1CCCC1)CCC(=O)N2C
**Result** 1

**Query** Another compound to look at: CC(C)(C)c1cnc(CSc2cnc(NC(=O)C3CCNCC3)s2)o1
**Result** 3

====

# System: U2OS
# Test Method Notes: Incucyte cell viability with U2OS; further: filed as whole numbers so only -1 and 0 and 1 occur
# Assay type: toxicity, cell-based
# Details: human, 24 h, 10 µM, compound concentration 10 uM, replicate number 2, timepoint 24 hours
Below, each entry is listed alongside its reported Growth Rate.
Please respond with just the number, no unit label.

Look over these answered cases.
Molecule Smiles: CCCCc1nc(Cl)c(CO)n1Cc1ccc(-c2ccccc2-c2nn[nH]n2)cc1
Growth Rate: 1
//
Molecule Smiles: CNc1cc2[nH]c(=O)n(-c3ccc(NC(=O)NS(=O)(=O)c4ccc(Cl)s4)cc3)c(=O)c2cc1F
Growth Rate: 1
//
Molecule Smiles: CC(C)Oc1ccc(-c2nn([C@@H](C)c3oc4ccc(F)cc4c(=O)c3-c3cccc(F)c3)c3ncnc(N)c23)cc1F
Growth Rate: 1

**Query** Would you mind telling me what Growth Rate value was observed for Clc1cc2c(NC3CCCC3)nnc(-c3ccncc3)c2cc1Cl ?
**Result** 1

====

# System: U2OS
# Test Method Notes: Multiplex assay against U2OS
# Type: toxicity, cell-based
# Details: human, 12 h, 10 µM, compound concentration 10 uM, replicate 2
Collected Population Apoptotic (%) values appear next to each entry.
Numbers only; they are read as %.

Compound: Nc1ccc(C(=O)Nc2cccc(-c3nc(N4CCOCC4)c4oc5ncccc5c4n3)c2)cn1
Population Apoptotic (%): 51
//
Compound: Cc1nc(Cc2cccc(C(F)(F)F)c2)sc1-c1ccc(C(N)=O)nc1 [TP-024n]
Population Apoptotic (%): 66
//
Compound: O=C(O)c1ccc2c(c1)nc(Nc1cccc(Cl)c1)c1ccncc12
Population Apoptotic (%): 33
//
Compound: CC(=O)c1cc(-c2cc(C(=O)NC3CC3)ccc2C)c2ncccn12
Population Apoptotic (%): 60
//
Compound: CCCn1c(=O)c2[nH]c(C34CC5CC(CC3C5)C4)nc2n(CCC)c1=O
Population Apoptotic (%): 55
//
Compound: CCc1cc2c(cc1CC)CC(NC[C@H](O)c1ccc(O)c3[nH]c(=O)ccc13)C2
Population Apoptotic (%): 68
//
Compound: O=C(O)c1ccc2cc(-c3ccc(O)c(C45CC6CC(CC(C6)C4)C5)c3)ccc2c1
Population Apoptotic (%): 100
//
Compound: CCn1c(-c2nonc2N)nc2cnc(Oc3cccc(NC(=O)c4ccc(OCCN5CCOCC5)cc4)c3)cc21 [GSK-269962A]
Population Apoptotic (%): 31
//
Compound: CCC(=O)O[C@]1(C(=O)SCF)[C@H](C)C[C@H]2[C@@H]3C[C@H](F)C4=CC(=O)C=C[C@]4(C)[C@@]3(F)[C@@H](O)C[C@@]21C [FLUTICASONE PROPIONATE]
Population Apoptotic (%): 28
//
Compound: Cc1cc2c(cc1N1C(=O)c3cccc4c(CCCO)ccc(c34)C1=O)n(C)c(=O)n2C
Population Apoptotic (%): 37

**Query** Report Population Apoptotic (%) for c1ccc2oc(-c3csc(C4CCN(Cc5nc6ncccc6[nH]5)CC4)n3)cc2c1 please.
**Result** 25

**Query** Do the same for CNC(=O)c1cc(Oc2ccc(NC(=O)Nc3cc(C(C)(C)C)nn3-c3ccc4ncccc4c3)c(F)c2)ccn1 please
**Result** 46

**Query** How about this compound: COc1cc2c(Nc3ccc(NC(=O)c4ccccc4)cc3)ncnc2cc1OCCCN1CCOCC1
**Result** 0

**Query** Could you do the same for CCOc1cc(N2CCC(O)CC2)ccc1Nc1ncc2c(n1)N(C1CCCC1)CCC(=O)N2C , please?
**Result** 33

**Query** Another: CNc1oc(-c2cccc3ccccc23)nc1C#N
**Result** 80

**Query** What do we get for COc1ccc(NS(=O)(=O)c2sc3ccc(Cl)cc3c2C)cc1N1CCNCC1.Cl ?
**Result** 61

**Query** Lookup Nc1nc2c(c(N3CCNCC3)n1)CCC1=C2[C@@H]2CCCC[C@@H]2O1
**Result** 27

====

# Test system: HEK-293T
# Test Method Notes: Multiplex assay against HEK293T
# Format: toxicity, cell-based
# Details: human, 24 h, 1 µM, compound concentration 1 uM, replicate 1
Mark each entry fulfilled if its Population Healthy Nuclei (%) sits below 50%, and not fulfilled for all others.

Answered cases to consult:
Molecule: CC(C)N1CCC(C)(C)c2cc(C#Cc3ccc(C(=O)O)cc3)ccc21
Label Value: fulfilled
--
Molecule: COc1cc2c(NC3CCN(C(C)C)CC3)nc(N3CCC(F)(F)CC3)nc2cc1OCCCN1CCCC1
Label Value: fulfilled
--
Molecule: Cc1cn(-c2cc(NC(=O)c3ccc4c(c3)CN(c3cncnc3)C[C@@H]4C)cc(C(F)(F)F)c2)cn1
Label Value: not fulfilled
--
Molecule: Cc1cc2c(cc1N1C(=O)c3cccc4c(CCCO)ccc(c34)C1=O)n(C)c(=O)n2C
Label Value: fulfilled
--
Molecule: CCOc1cc2ncc(C#N)c(Nc3ccc(OCc4cccc(F)c4)c(Cl)c3)c2cc1NC(=O)/C=C/CN(C)C [HKI-357]
Label Value: not fulfilled
--
Molecule: Nc1ccc(C(=O)Nc2cccc(-c3nc(N4CCOCC4)c4oc5ncccc5c4n3)c2)cn1
Label Value: fulfilled

**Query** Threshold test, Population Healthy Nuclei (%) < 50%: CC(C)Oc1ccc(C(=O)N[C@H](CNC(=O)CN(C)C)Cc2ccc(-c3cn4cccc([C@H](C)O)c4n3)cc2)cc1Cl [GSK-923295A]
**Result** not fulfilled

====

# Test system: U2OS
# Test Method Notes: Multiplex assay against U2OS
# Format: toxicity, cell-based
# Details: human, 24 h, 1 µM, compound concentration 1 uM, replicate 2
Measurement Name: Population Apoptotic (%)
All answers are understood in %, so give the number only.

Before answering, review these 2 worked examples.
Molecule: CNC(=O)c1nn(C)c2c1C(C)(C)Cc1cnc(Nc3ccc(N4CCN(C)CC4)cc3)nc1-2 [MILCICLIB]
Tgt: U2OS
Measurement: 86
//
Molecule: CCc1cc2c(cc1CC)CC(NC[C@H](O)c1ccc(O)c3[nH]c(=O)ccc13)C2 [INDACATEROL]
Tgt: U2OS
Measurement: 14

Here is another molecule to look at.
**Query** Form field: reported Population Apoptotic (%) of Cc1cc2c(cc1N1C(=O)c3cccc4c(CCCO)ccc(c34)C1=O)n(C)c(=O)n2C
**Result** 40

====

# System: HEK-293T
# Test Method Notes: Incucyte cell viability with HEK293T; further: filed as whole numbers so only -1 and 0 and 1 occur
# Assay type: toxicity, cell-based
# Details: human, 0 h, 10 µM, compound concentration 10 uM, replicate number 1, timepoint 0 hours
Measurement Name: Growth Rate
Give a plain numeric answer without units written out.

**Query** # query: Growth Rate | item C=CCN1C[C@H](C)N([C@H](c2ccc(C(=O)N(CC)CC)cc2)c2cccc(O)c2)C[C@H]1C | system: HEK-293T
**Result** 1

====

# Test system: Fibroblast
# Test Method Notes: Multiplex assay against human fibroblast
# Assay type: toxicity, cell-based
# Details: 48 h, 10 µM, compound concentration 10 uM, replicate 2
Label scheme for Population Mitochondria Different-Phenotype (%): lower than 20% is Not met, 20% and above is Met.

Study these solved cases before continuing.
Compound: CC(C)N1CCC(C)(C)c2cc(C#Cc3ccc(C(=O)O)cc3)ccc21
Label Value: Not met
//
Compound: Cc1cc2c(cc1N1C(=O)c3cccc4c(CCCO)ccc(c34)C1=O)n(C)c(=O)n2C
Label Value: Not met
//
Compound: COc1cc(N2CCC(N(C)C)CC2)ccc1Nc1ncc(Cl)c(Nc2ccccc2P(C)(C)=O)n1
Label Value: Not met
//
Compound: C1=N/C2=N/c3ccc(OCCN4CCCC4)c(c3)COC/C=C\COCc3cccc(c3)C(=C1)N2
Label Value: Met
//
Compound: Nc1nc2c(c(N3CCNCC3)n1)CCC1=C2[C@@H]2CCCC[C@@H]2O1
Label Value: Not met

**Query** Form field: Population Mitochondria Different-Phenotype (%) at least 20%? Entry: COc1cc2c(NC3CCN(C(C)C)CC3)nc(N3CCC(F)(F)CC3)nc2cc1OCCCN1CCCC1
**Result** Not met

**Query** Do the same for CC(=O)c1cc(-c2cc(C(=O)NC3CC3)ccc2C)c2ncccn12 please
**Result** Not met

**Query** Request: CCCn1c(=O)c2[nH]c(C34CC5CC(CC3C5)C4)nc2n(CCC)c1=O [ROLOFYLLINE]
**Result** Met

**Query** Try the compound Cl.Cl.Nc1ncnc2c1c(-c1cccc(OCc3ccccc3)c1)cn2[C@H]1C[C@@H](CN2CCC2)C1
**Result** Met

**Query** Then what about the compound CCC(=O)O[C@]1(C(=O)SCF)[C@H](C)C[C@H]2[C@@H]3C[C@H](F)C4=CC(=O)C=C[C@]4(C)[C@@]3(F)[C@@H](O)C[C@@]21C [FLUTICASONE PROPIONATE] ?
**Result** Not met

**Query** Query COc1ccc(NS(=O)(=O)c2sc3ccc(Cl)cc3c2C)cc1N1CCNCC1.Cl next
**Result** Met

**Query** Can you handle CCc1cc2c(cc1CC)CC(NC[C@H](O)c1ccc(O)c3[nH]c(=O)ccc13)C2 [INDACATEROL] next?
**Result** Met

**Query** For CCn1c(-c2nonc2N)nc2cnc(Oc3cccc(NC(=O)c4ccc(OCCN5CCOCC5)cc4)c3)cc21 [GSK-269962A] then?
**Result** Not met
